# experimental details: qHTS assay to identify small molecule agonists of H2AX - cell viability counter screen (AID 1224847);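 further: wild-type CHO-K1 cells; top concentration of the series differs between compounds; on the % scale 0 is the no-effect control and ±100 the full control effect; nearly all actives have a fitted effect of over 30% in size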
# settings: CHO-K1 viability, CellTiter-Glo luminescence, 3 h; series mostly up to 154 µM
# Text: National Center for Advancing Translational Sciences [NCATS] NIH Chemical Genomics Center [NCGC] U.S. Environmental Protection Agency [EPA] National Institutes of Environmental Health Sciences [NIEHS] National Toxicology Program [NTP] U.S. Food and Drug Administration [FDA] HTRF phospho-H2AX (Ser139) assay (Cisbio Bioassays, US) enables the quantitative detection of the histone variant H2AX when phosphorylated on serine 139. […]
Records with an inconclusive call do not appear. Calls of active or inactive are those of the source. The call rests on the fitted dose curve.
reported endpoint: activity change, negative = cytotoxicity

Known results for molecules:
molecule	activity change, negative = cytotoxicity
O=C(O)c1cc(Br)c(O)c(Br)c1	inactive
O=C(CCNNC(=O)c1ccncc1)NCc1ccccc1	inactive
CC(C)C(=O)OCc1cccc(OC(=O)[C@@H]2N3C(=O)[C@@H](NC(=O)Cc4ccccc4)[C@H]3SC2(C)C)c1	inactive
CC(C)NCC(O)COc1ccc(COCCOC(C)C)cc1 (stereo unspecified)	inactive
N[C@@H](CCC(=O)N[C@@H](CS)C(=O)NCC(=O)O)C(=O)O	0.69% [at 31.6 µM] (inactive)

Proceed to the following item.
stdin: Look at this molecule and give its reported activity change, negative = cytotoxicity. CCCCCCN
stdout: inactive
